# measuredOn: hT1R2/T1R3 taste receptor (Homo sapiens, UniProt Q7RTX0+Q8TE23)
# Sequence (Q8TE23 20-839): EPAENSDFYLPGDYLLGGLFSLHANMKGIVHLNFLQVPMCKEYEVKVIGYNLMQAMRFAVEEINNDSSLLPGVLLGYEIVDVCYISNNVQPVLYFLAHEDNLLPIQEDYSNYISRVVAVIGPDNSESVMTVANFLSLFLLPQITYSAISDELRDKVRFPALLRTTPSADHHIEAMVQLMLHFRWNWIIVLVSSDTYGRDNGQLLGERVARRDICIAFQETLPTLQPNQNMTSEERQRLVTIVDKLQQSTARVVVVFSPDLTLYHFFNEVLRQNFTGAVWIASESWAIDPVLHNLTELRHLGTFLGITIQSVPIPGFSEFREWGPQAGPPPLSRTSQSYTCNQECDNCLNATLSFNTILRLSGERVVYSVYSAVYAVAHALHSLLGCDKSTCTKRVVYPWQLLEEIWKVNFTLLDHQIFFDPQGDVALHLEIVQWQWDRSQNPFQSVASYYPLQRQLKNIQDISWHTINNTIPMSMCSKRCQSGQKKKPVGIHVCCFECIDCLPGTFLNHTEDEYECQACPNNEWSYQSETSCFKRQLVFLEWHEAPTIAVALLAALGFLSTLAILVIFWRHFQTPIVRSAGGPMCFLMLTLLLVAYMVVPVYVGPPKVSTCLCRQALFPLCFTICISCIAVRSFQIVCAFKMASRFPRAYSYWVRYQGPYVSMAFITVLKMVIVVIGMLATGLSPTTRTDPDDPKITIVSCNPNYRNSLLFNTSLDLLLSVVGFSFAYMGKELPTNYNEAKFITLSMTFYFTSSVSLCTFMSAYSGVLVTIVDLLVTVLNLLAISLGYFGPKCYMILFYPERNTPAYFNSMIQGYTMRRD
# Sequence (Q7RTX0 21-852): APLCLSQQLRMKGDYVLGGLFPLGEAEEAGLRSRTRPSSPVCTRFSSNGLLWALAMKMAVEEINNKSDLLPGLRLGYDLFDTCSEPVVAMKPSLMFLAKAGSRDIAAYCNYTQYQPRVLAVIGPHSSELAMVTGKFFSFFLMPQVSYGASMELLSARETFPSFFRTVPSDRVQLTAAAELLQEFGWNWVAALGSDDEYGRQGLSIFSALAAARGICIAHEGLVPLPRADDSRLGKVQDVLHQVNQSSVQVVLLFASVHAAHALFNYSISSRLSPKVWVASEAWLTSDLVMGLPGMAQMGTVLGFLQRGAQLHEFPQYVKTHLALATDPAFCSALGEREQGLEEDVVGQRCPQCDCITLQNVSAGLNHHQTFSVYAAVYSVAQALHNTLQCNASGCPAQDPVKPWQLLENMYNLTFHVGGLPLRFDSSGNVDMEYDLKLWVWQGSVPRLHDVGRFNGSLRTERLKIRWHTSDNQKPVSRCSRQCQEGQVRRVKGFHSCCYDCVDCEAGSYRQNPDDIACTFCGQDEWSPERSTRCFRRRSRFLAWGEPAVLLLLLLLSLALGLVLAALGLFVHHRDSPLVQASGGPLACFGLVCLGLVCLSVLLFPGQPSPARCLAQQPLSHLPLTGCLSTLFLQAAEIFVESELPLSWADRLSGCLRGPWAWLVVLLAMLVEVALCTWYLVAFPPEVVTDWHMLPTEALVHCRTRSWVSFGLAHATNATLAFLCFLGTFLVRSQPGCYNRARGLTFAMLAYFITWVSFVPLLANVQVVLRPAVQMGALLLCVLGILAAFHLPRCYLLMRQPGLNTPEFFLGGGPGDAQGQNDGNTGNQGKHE
# experimentDescription: agonist activity against the hT1R2/T1R3 taste receptor (sweet receptor based assay)
# Type: cell-based
# Method: Compounds described in this application show moderate to potent agonist effect on the sweet receptor based assay. Potencies (EC50 values, e.g. see Tables 1-3) for agonist activity were measured against the hT1R2/T1R3 taste receptor. FIG. 1 exemplifies the data generated during the screening to determine EC50 values.
propertyLabel: EC50 (nM)
The response must be a number in nM with no trailing unit.

Would you please look over these solved cases?
INSERT INTO measurements (compound, observed) VALUES
  ('CCC(C)(C)NC(=O)C(C)(C)N1CCC(C#N)(c2cccc(F)c2F)CC1 [Compound 127]', 1500),
  ('COCC(C(=O)NCC(C)C)N1CCC(C#N)(c2cccc(F)c2F)CC1 (centres unmarked) [Compound 129]', 4300);

Entry CC(C)CNC(=O)C(C)(C)N1CCC(C#N)(c2ccccc2)CC1 [Compound 124] — recorded EC50 = 2200

// CC(C)CNC(=O)C(C)(C)N1CCC(C#N)(c2cccc(F)c2F)CC1 [Compound 79] : EC50 value = 1600

EC50 reported for this compound CC(C)(C)NC(=O)C(C)(C)N1CCC(C#N)(c2cccc(F)c2F)CC1 [Compound 126] : 2000

Recorded result, CC(C)(C(=O)NC1CC1)N1CCC(C#N)(c2cccc(F)c2F)CC1 [Compound 128] , EC50: 1700

---

# measuredOn: hT1R2/T1R3 taste receptor (Homo sapiens, UniProt Q7RTX0+Q8TE23)
# experimentDescription: agonist activity against the hT1R2/T1R3 taste receptor (sweet receptor based assay)
# Format: cell-based
# condition: agonist activity, hT1R2/T1R3; read-out: Sweet EC50
Classify: 1 when EC50 is strictly less than 3 µM; -1 when EC50 is not.

INSERT INTO measurements (compound, classification) VALUES
  ('CC(C)CNC(=O)C(C)(C)N1CCC(c2cccc(C(=O)N(C)C)c2)CC1', -1),
  ('CC(C)CNC(=O)C(C)(C)N1CCN(c2ccccc2C(F)(F)F)CC1', -1);

Now examine the next entry.
Please state whether EC50 is below 3 µM for CC(C)CNC(=O)C(C)(C)N1CCN(c2ccccc2CO)CC1
-1

---

# measuredOn: hT1R2/T1R3 taste receptor (Homo sapiens, UniProt Q7RTX0+Q8TE23)
# experimentDescription: agonist activity against the hT1R2/T1R3 taste receptor (sweet receptor based assay)
# Format: cell-based
# condition: agonist activity, hT1R2/T1R3; read-out: Sweet EC50
This listing pairs compounds with measured EC50.

Record excerpt, results attached:
INSERT INTO results (itemsmiles, propertylabel, observed) VALUES
  ('Cc1cccnc1N1CCN(C(C)(C)C(=O)NCC(C)C)CC1', 'EC50', '> 10 µM'),
  ('COCc1cccc(N2CCN(C(C)(C)C(=O)NCC(C)C)CC2)c1', 'EC50', '> 10 µM');

Let's switch to this compound now.
Consider COC(=O)c1ccccc1N1CCN(C(C)(C)C(=O)NCC(C)C)CC1 . Its measured EC50 is > 10 µM

---

# measuredOn: hT1R2/T1R3 taste receptor (Homo sapiens, UniProt Q7RTX0+Q8TE23)
# experimentDescription: agonist activity against the hT1R2/T1R3 taste receptor (sweet receptor based assay)
# Format: cell-based
# condition: agonist activity, hT1R2/T1R3; read-out: Sweet EC50
pEC50: −log10 of the molar value.
propertyLabel: pEC50

INSERT INTO results (compound, measuredon, observed) VALUES
  ('CC(C)CNC(=O)C(C)(C)N1CCN(c2cccc(CO)c2F)CC1 [Compound 35]', 'hT1R2/T1R3 taste receptor (Homo sapiens, UniProt Q7RTX0+Q8TE23)', '< 5.00');

GET /value?item= Cc1cccc(N2CCN(C(C)(C)C(=O)NCC3CCCCCC3)CC2)c1C [Compound 17] &field=pEC50 returns < 5.00

pEC50 reading for CC(C)CNC(=O)C(C)(C)N1CCC(CO)(c2ccccc2)CC1 [Compound 119] : < 5.00

Reported pEC50 of CC(C)CNC(=O)C(C)(C)N1CCC(c2cccc(CO)c2F)CC1 [Compound 99] : 5.33
